Please respond with reported % Positive for every item in the list.
Molecular target: T1, human Siglec-7 expressed on human cells (primary monocytes, dendritic cells, macrophages, NK cells, … (human, UniProt Q9Y286 19-467))
T1 construct: Endogenous receptor on cells; also called Siglec-7 receptor
T1 sequence (Q9Y286 19-467): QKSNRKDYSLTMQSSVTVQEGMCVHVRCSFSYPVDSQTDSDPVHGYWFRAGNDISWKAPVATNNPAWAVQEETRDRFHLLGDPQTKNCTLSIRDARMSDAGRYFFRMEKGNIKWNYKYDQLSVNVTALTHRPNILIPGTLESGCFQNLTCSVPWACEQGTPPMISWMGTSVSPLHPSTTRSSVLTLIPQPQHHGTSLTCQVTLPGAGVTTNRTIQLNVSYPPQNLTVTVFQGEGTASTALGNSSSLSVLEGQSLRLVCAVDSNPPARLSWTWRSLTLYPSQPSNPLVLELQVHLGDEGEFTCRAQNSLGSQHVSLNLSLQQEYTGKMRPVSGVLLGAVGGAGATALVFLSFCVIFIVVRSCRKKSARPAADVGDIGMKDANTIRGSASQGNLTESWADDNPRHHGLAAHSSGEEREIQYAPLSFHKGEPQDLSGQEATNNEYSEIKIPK
Assay: FACS, human primary dendritic cells, 10 ug/ml mAb
Answers are plain numbers, in %.

Guide cases for % Positive, answers given:
anti-Siglec-7 antibody 4D7 (antibody, V domains shown, Variable domains assembled from FR and CDR entries) VH: QVQLQQSGAELVKPGASVKLSCKTSGYTFTNYWINWVKQRPGQGLEWIGNIYSGSSRTNYNEKFKSKATLTVDTSSSTAYMQLSSLTSDDSAVYYCAREGLRAMDYWGQGTSVTVSS VL: NZMTQFQKFMSTSVGDRVSLTCKASQKVGTNVAGFQQKPGHSPKAGIYSASTRHRGVQDRFTARGLGSDFILPITTZQLEDLAEYZCHQGNSVQYTFGGGTKLEIK | 26.1
anti-Siglec-7 antibody 7A3 (antibody, V domains shown, Variable domains assembled from FR and CDR entries; VL FR1 and VH FR1 hold Z and VH FR1 looks shortened at its N-terminus) VH: LVZSGGALVKPGGSLKLSCAASGFTFSNYAMSWVRQTPEKRLEWVASISSGGSYNYYPDSVKGRFTISRDNARNTLYLQMSSLRSKDTAMYYCASQSYGSSYWYFDVWGAGTTVTVSS VL: DIQMTQZPATLSVTPGDRVSLSCRASQSISEYLHWYHQKSHESPRLLIKFASQSICGIPSRFSGSGSGSDFTLTINSVEPEDVGVYYCQNGHNFPYTFGGGTKLEIK | 99.7

Please look up its % Positive: anti-Siglec-7 antibody 7E11 (antibody, V domains shown, Variable domains assembled from FR and CDR entries) VH: QVQLKQSGPVLVAPSQSLSITCTVSGFSLSNYGVHWVRQFPGKGLEWLGVIWAGGITNYNSVLMSRLSISKDNSKSQVFLKMNSLQTDDTAMYYCAKQGGTSFSYWGQGTLVTVSA VL: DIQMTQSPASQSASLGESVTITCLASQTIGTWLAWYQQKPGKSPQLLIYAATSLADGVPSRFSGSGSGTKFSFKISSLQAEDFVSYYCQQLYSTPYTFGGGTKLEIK
98.4

Hey, just so you know, these numbers are from patent US20200277374A1.
